Ref: ChEMBL document CHEMBL3885861

Can you tell me MCH for the items I'm about to list?
# Organism: Rattus norvegicus
# assay_protocol: Open TG-GATES - Regimen: Daily Repeat
# Format: toxicity, organism-based, Sprague-Dawley
# Design: regimen Daily Repeat, gender Male, age 6 weeks
# condition_parameters: in vivo, po, 0 mg/kg, […], tissue Blood, route gavage, dose level Control, time 14 day
Please report the result as a number followed by the unit.

In: Would you kindly share the measured MCH for ClC(Cl)(Cl)Cl [CARBON TETRACHLORIDE] ?
Out: 20 pg

In: Would you kindly share the measured MCH for CC1=C(CC(=O)O)c2cc(F)ccc2/C1=C\c1ccc([S+](C)[O-])cc1 (centres undefined) ?
Out: 20.9 pg

In: Would you kindly share the measured MCH for CC[C@H]1[C@@H]2C[C@H]3[C@@H]4N(C)c5ccccc5[C@]45C[C@@H]([C@@H]2[C@H]5O)N3[C@@H]1O [AJMALINE] ?
Out: 20.6 pg

In: Would you kindly share the measured MCH for CCc1oc2ccccc2c1C(=O)c1cc(Br)c(O)c(Br)c1 [BENZBROMARONE] ?
Out: 20.9 pg

In: Would you kindly share the measured MCH for CN(C)CCC=C1c2ccccc2COc2ccccc21 [DOXEPIN] ?
Out: 21.3 pg

In: Would you kindly share the measured MCH for OCCOCCN1CCN(C(c2ccccc2)c2ccc(Cl)cc2)CC1 (centres undefined) [HYDROXYZINE] ?
Out: 20.7 pg

In: Would you kindly share the measured MCH for CCCCc1oc2ccccc2c1C(=O)c1cc(I)c(OCCN(CC)CC)c(I)c1 [AMIODARONE] ?
Out: 20.9 pg

In: Would you kindly share the measured MCH for CCC1(c2ccccc2)C(=O)NC(=O)NC1=O [PHENOBARBITAL] ?
Out: 20.6 pg

In: Would you kindly share the measured MCH for O=NN(CCCl)C(=O)NC1CCCCC1 [LOMUSTINE] ?
Out: 20.3 pg
